B1: Azoarcus group I ribozyme (parent)
chain: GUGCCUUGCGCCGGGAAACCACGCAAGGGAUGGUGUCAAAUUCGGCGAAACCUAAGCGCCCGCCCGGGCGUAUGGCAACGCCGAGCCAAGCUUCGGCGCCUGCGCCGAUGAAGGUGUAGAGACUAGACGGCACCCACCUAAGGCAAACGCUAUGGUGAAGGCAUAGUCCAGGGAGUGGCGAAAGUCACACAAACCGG

Variants of: B1
Experiment: reverse-splicing fitness (ratio to wild type); higher = more active; in vitro selection; Mg2+ level not given
# reverse-splicing fitness listing for each entry below
Answer with the value's number alone.

The examples below pair each entry with its known result.
mut="C82A A111G A120G A145G C150A C169G U176C" quantitative_readout=0.0239
mut="C82U A111C A120C A145C C150G C169G U176C" quantitative_readout=0.00799
mut="C82U A111G A120G A145C C150G C169U" quantitative_readout=0.00741
mut="C82U A111C A120U A145U C150G C169U U176A" quantitative_readout=0.00227
mut="C82U A111C A145C C169A U176G" quantitative_readout=0.00613

Exercise: Name the recorded reverse-splicing fitness of the item C82G A111G A145U C150G U176A in your answer.
Solution: 0.0185

Exercise: Name the recorded reverse-splicing fitness of the item A111C A120G A145U C169U U176C in your answer.
Solution: 0.0424

Exercise: Name the recorded reverse-splicing fitness of the item A111G A120U U176G in your answer.
Solution: 0.164

Exercise: Name the recorded reverse-splicing fitness of the item C82G A111U A120G A145U C150G C169G U176A in your answer.
Solution: 0.00644

Exercise: Name the recorded reverse-splicing fitness of the item C82U A111U A120U A145C C150U U176A in your answer.
Solution: 0.00399

Exercise: Name the recorded reverse-splicing fitness of the item C82A A111C A120G A145U C150G C169U in your answer.
Solution: 0.00788

Exercise: Name the recorded reverse-splicing fitness of the item C82G A111G A145C C150A C169U U176G in your answer.
Solution: 0.00582

Exercise: Name the recorded reverse-splicing fitness of the item C82A A111G A120U A145U C150U C169A U176G in your answer.
Solution: 0.00171

Exercise: Name the recorded reverse-splicing fitness of the item C82G A111C A120G A145C C150G C169G U176G in your answer.
Solution: 0.00499

Exercise: Name the recorded reverse-splicing fitness of the item A111G A145G C150G U176G in your answer.
Solution: 0.0237

Exercise: Name the recorded reverse-splicing fitness of the item C82G A111G A120C A145G C150A C169G in your answer.
Solution: 0.0104

Exercise: Name the recorded reverse-splicing fitness of the item C82U A120G A145U C150A in your answer.
Solution: 0.00772

Ref: the RNAGym collection of RNA variant scans (doi:10.1093/molbev/msab373)
